The measured values listed here are drawn from patent US12581252B2.

Consider the following compounds and their measured IC50 readings.
- tested-target: H1047R PIK3CA enzyme (Homo sapiens, UniProt P42336, H1047R)
- Sequence (P42336 whole entry H1047R): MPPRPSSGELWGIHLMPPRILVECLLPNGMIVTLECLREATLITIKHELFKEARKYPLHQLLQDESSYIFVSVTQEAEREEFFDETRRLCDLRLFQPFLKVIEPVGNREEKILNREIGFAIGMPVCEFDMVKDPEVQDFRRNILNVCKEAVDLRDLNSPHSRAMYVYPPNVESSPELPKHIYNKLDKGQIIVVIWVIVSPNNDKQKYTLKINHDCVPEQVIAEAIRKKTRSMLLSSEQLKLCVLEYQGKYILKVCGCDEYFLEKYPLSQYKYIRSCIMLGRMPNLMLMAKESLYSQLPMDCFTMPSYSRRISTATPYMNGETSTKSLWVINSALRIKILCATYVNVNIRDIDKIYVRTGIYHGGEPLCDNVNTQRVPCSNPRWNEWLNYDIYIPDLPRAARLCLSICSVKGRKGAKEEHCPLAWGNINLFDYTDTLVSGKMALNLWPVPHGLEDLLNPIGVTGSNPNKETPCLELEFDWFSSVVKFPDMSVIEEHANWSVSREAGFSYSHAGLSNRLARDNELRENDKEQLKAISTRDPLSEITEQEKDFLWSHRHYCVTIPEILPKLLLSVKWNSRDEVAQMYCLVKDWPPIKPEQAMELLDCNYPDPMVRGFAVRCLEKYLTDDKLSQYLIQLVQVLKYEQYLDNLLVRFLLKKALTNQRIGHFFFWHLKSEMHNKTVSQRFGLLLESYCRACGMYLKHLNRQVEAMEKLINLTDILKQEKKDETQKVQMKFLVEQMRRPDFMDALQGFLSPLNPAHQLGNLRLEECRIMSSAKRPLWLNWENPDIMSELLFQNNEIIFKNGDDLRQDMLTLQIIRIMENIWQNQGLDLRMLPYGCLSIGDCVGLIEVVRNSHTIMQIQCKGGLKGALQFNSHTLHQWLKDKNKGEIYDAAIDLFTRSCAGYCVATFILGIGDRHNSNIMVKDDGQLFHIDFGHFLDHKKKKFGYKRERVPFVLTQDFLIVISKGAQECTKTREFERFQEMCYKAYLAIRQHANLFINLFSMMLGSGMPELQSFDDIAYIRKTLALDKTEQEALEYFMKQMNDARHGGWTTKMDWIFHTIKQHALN
- Sequence (P27986 whole entry partner): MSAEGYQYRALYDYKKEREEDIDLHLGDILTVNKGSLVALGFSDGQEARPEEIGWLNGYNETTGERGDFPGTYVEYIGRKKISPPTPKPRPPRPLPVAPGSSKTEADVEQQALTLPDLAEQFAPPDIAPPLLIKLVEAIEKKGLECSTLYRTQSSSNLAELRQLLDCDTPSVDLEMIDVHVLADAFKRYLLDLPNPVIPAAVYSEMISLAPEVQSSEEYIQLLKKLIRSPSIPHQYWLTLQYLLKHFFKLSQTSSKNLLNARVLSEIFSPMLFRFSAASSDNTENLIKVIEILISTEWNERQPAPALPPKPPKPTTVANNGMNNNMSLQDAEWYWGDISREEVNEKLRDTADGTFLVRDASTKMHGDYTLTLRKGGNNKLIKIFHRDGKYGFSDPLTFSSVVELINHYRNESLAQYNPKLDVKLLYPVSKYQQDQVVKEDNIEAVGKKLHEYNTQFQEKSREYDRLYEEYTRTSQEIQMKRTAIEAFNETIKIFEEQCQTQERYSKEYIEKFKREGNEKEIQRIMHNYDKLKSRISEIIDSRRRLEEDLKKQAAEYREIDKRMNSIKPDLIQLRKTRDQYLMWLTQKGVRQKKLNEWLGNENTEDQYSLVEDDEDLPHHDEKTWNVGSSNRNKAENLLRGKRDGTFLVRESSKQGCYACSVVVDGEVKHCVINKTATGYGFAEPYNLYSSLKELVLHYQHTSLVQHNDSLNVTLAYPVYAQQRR
- protocol: ADP-Glo Biochemical PIK3CA Kinase Assay
parameter: IC50

[
  {
    "compound": "N#CCCN(C(=O)c1cc(F)cc(C(F)(F)F)c1)c1cc(O)cc2c1C(c1cc(F)ccc1Cl)NC2=O (centres unmarked)",
    "reported-measurement": "10000 to 100000 nM"
  },
  {
    "compound": "O=C(Nc1cc(-c2ccc3ncncc3c2)cc2c1C(c1cc(F)ccc1Cl)NC2=O)c1cc(F)cc(C(F)(F)F)c1 (centres unmarked)",
    "reported-measurement": "≤ 100 nM"
  },
  {
    "compound": "N#Cc1cnccc1-c1cc(NC(=O)c2cc(F)cc(C(F)(F)F)c2)c2c(n1)C(=O)NC2c1cc(F)ccc1Cl (centres unmarked)",
    "reported-measurement": "≤ 100 nM"
  },
  {
    "compound": "O=C(Nc1cc(N2CC3CNCC3C2=O)cc2c1C(c1cc(F)ccc1Cl)NC2=O)c1cc(F)cc(C(F)(F)F)c1 (centres unmarked)",
    "reported-measurement": "≤ 100 nM"
  },
  {
    "compound": "N#CCc1cc(NC(=O)N2C[C@H](O)c3cc(F)ccc32)c2c(c1)C(=O)N[C@H]2c1cc(F)ccc1Cl (single isomer, unassigned)",
    "reported-measurement": "1000 to 10000 nM"
  },
  {
    "compound": "O=C(Nc1cc(-c2ccc3ncnn3c2)cc2c1C(c1cc(F)ccc1Cl)NC2=O)c1cc(F)cc(C(F)(F)F)c1 (centres unmarked)",
    "reported-measurement": "≤ 100 nM"
  },
  {
    "compound": "O=C(Nc1cc(CS(=O)(=O)c2ncccn2)cc2c1C(c1cc(F)ccc1Cl)NC2=O)c1cc(F)cc(C(F)(F)F)c1 (centres unmarked)",
    "reported-measurement": "≤ 100 nM"
  },
  {
    "compound": "O=C(Nc1cc(Br)cc2c1[C@H](c1cccc(F)c1Cl)NC2=O)c1cc(F)cc(C(F)(F)F)c1",
    "reported-measurement": "≤ 100 nM"
  },
  {
    "compound": "Nc1cc(NC(=O)c2cc(F)cc(C(F)(F)F)c2)c2c(c1)C(=O)N[C@H]2c1cc(F)ccc1Cl",
    "reported-measurement": "≤ 100 nM"
  },
  {
    "compound": "O=C1NC(c2cc(F)ccc2Cl)c2c(NC(=O)c3cc(F)cc4c(Cl)n[nH]c34)cc(Br)cc21 (centres unmarked)",
    "reported-measurement": "1000 to 10000 nM"
  },
  {
    "compound": "O=C(Nc1cc(OC(F)F)cc2c1C(c1cc(F)ccc1Cl)NC2=O)c1cc(F)cc(C(F)(F)F)c1 (centres unmarked)",
    "reported-measurement": "≤ 100 nM"
  },
  {
    "compound": "O=C1CC2(CCN(c3cc(NC(=O)c4cc(F)cc(C(F)(F)F)c4)c4c(c3)C(=O)NC4c3cc(F)ccc3Cl)C2)CN1 (centres unmarked)",
    "reported-measurement": "≤ 100 nM"
  },
  {
    "compound": "CNc1cc(NC(=O)N2CC(O)(C(F)(F)F)c3cc(F)ccc32)c2c(c1C#N)C(=O)NC2c1cc(F)ccc1Cl (centres unmarked)",
    "reported-measurement": "≤ 100 nM"
  },
  {
    "compound": "CNC(=O)c1cc(NC(=O)c2cc(F)cc(C(F)(F)F)c2)c2c(c1)C(=O)N[C@H]2c1ccccc1C",
    "reported-measurement": "≤ 100 nM"
  }
]
